System: HEL
Assay: Antiviral activity was measured as effective concentration required to reduce Varicella Zoster virus (YS)-induced plaque formation in human embryonic lung cells
Type: functional, cell-based
MEASURE_NAME: EC50 (nM)
Give the quantity in nM, number only.

The compound identified as `CCCCCCCCCCc1cc2cn([C@H]3C[C@H](O)[C@@H](CO)O3)c(=O)nc2s1` registered its EC50 at 60

The compound identified as `CCCCCCc1cc2cn([C@H]3C[C@H](O)[C@@H](CO)O3)c(=O)nc2s1` registered its EC50 at 140

The compound identified as `CCCCCCCCc1cc2cn([C@H]3C[C@H](O)[C@@H](CO)O3)c(=O)nc2s1` registered its EC50 at 5

The compound identified as `CCCCCCCCCc1cc2cn([C@H]3C[C@H](O)[C@@H](CO)O3)c(=O)nc2s1` registered its EC50 at 10

The compound identified as `CCCCCCCCCCCCc1cc2cn([C@H]3C[C@H](O)[C@@H](CO)O3)c(=O)nc2s1` registered its EC50 at 300

The compound identified as `CCCCCCCCCCc1cc2cn([C@H]3C[C@H](O)[C@@H](CO)O3)c(=O)nc2o1` registered its EC50 at 8

The compound identified as `CCCCc1cc2cn([C@H]3C[C@H](O)[C@@H](CO)O3)c(=O)nc2s1` registered its EC50 at 150

The compound identified as Nc1nc2c(ncn2COCCO)c(=O)[nH]1 [ACYCLOVIR] registered its EC50 at 1500
